species on record: Rattus norvegicus; assay: Open TG-GATES - Regimen: Daily Repeat; format: toxicity, organism-based, Sprague-Dawley; design: regimen Daily Repeat, gender Male, age 6 weeks; conditions: in vivo, po, 0 mg/kg, 72 h, tissue Kidney, route gavage, dose level Control, time 3 day
Endpoint: KIDNEY_R (g)
Provide only the numeric value, understood in g.

Query block: Entry C[C@](N)(Cc1ccc(O)c(O)c1)C(=O)O [METHYLDOPA] : reported KIDNEY_R = ?
Result block: 0.9

Query block: Entry CC(=O)Oc1cc(C(C)C)c(OCCN(C)C)cc1C [MOXISYLYTE] : reported KIDNEY_R = ?
Result block: 1

Query block: Entry `Nc1nc(N)c2nc(-c3ccccc3)c(N)nc2n1` : reported KIDNEY_R = ?
Result block: 1.1

Query block: Entry CC(C)(S)[C@@H](N)C(=O)O [PENICILLAMINE] : reported KIDNEY_R = ?
Result block: 0.9

* * *

organism: Rattus norvegicus; experiment: Open TG-GATES - Regimen: Daily Repeat; assay type: toxicity, organism-based, Sprague-Dawley; design: regimen Daily Repeat, gender Male, age 6 weeks; settings: in vivo, po, 0 mg/kg, […], tissue Plasma, route gavage, dose level Control, time 7 day
Endpoint: GLC (mg/dL)
Provide only the numeric value, understood in mg/dL.

Query block: Entry `Nc1nc(N)c2nc(-c3ccccc3)c(N)nc2n1` : reported GLC = ?
Result block: 186.2

Query block: Entry C[C@]12CCC(=O)C=C1CC[C@@H]1[C@@H]2CC[C@@]2(C)[C@H]1CC[C@]2(C)O [METHYLTESTOSTERONE] : reported GLC = ?
Result block: 192.4

Query block: Entry O=C(O)c1cccnc1 [NIACIN] : reported GLC = ?
Result block: 190.4

Query block: Entry CC(=N)S [THIOACETAMIDE] : reported GLC = ?
Result block: 190.2

* * *

species on record: Rattus norvegicus; assay: Open TG-GATES - Regimen: Daily Repeat; type: toxicity, organism-based, Sprague-Dawley; parameters: regimen Daily Repeat, gender Male, age 6 weeks; conditions: in vivo, po, 0 mg/kg, 72 h, tissue Plasma, route gavage, dose level Control, time 3 day
Endpoint: gamma-GTP (IU/L)
Provide only the numeric value, understood in IU/L.

Query block: Entry `CN1C(=O)OC(C)(C)C1=O` : reported gamma-GTP = ?
Result block: 1

Query block: Entry `CCC(C)(C)C(=O)O[C@H]1C[C@@H](C)C=C2C=C[C@H](C)[C@H](CC[C@@H]3C[C@@H](O)CC(=O)O3)[C@H]21` : reported gamma-GTP = ?
Result block: 1.8

Query block: Entry `CC(C)(S)[C@@H](N)C(=O)O` : reported gamma-GTP = ?
Result block: 1

Query block: Entry `C#C[C@]1(O)CC[C@H]2[C@@H]3CCc4cc(O)ccc4[C@H]3CC[C@@]21C` : reported gamma-GTP = ?
Result block: 1.2

Query block: Entry CC(C)C(=O)Nc1ccc([N+](=O)[O-])c(C(F)(F)F)c1 [FLUTAMIDE] : reported gamma-GTP = ?
Result block: 0.8

Query block: Entry `CCc1oc2ccccc2c1C(=O)c1cc(I)c(O)c(I)c1` : reported gamma-GTP = ?
Result block: 1.2

Query block: Entry `Oc1ncnc2[nH]ncc12` : reported gamma-GTP = ?
Result block: 1.2

Query block: Entry `O=C(N[C@H](CO)[C@H](O)c1ccc([N+](=O)[O-])cc1)C(Cl)Cl` : reported gamma-GTP = ?
Result block: 1.2

The measurements presented in this section are drawn from ChEMBL document CHEMBL3885861.
